System: intestinal alkaline phosphatase [Mus musculus]
Test: mouse intestinal phosphatase enzyme activation – biochemical, luminescence, single concentration, confirmation (AID 434970)
Conditions: purified mouse IAP, CDP-Star luminescence, 30 min, at 10 µM; measured here: IAP activation factor, stronger effect = higher value
The whole screen tested about 11,000 compounds, of which about 310 (2.8%) were called active. What follows is part of a selection rich in actives, with near analogues and random picks from the rest.
endpoint: activation factor

// known answers, use as guide
- compound: "CC(CN1CCN(C)CC1)OC(=O)c1ccc(Cl)cc1 (centres undefined)"
  activation factor: 0.929
- compound: "O=C(c1ccc(Cn2c(=O)[nH]c3ccccc3c2=O)cc1)N1CCN(c2ccc(F)cc2)CC1"
  activation factor: 1
- compound: "C#CCOCCOCCOCCNc1nc(N2CCN(C(=O)CCCCCCCCCCNC(=O)[C@H](CCCCN)n3cc(CCCC(=O)O)nn3)CC2)nc(N2CCN(C(=O)CCCCCCCCCCNC(=O)[C@H](CCCN=C(N)N)n3cc(C[C@@H](C)CC)nn3)CC2)n1"
  activation factor: 2.67
- compound: "C#CCOCCOCCOCCNc1nc(N2CCN(C(=O)CCCCCCCCCCNC(=O)[C@H](CCCCN)n3cc(C)nn3)CC2)nc(N2CCN(C(=O)CCCCCCCCCCNC(=O)[C@H](CCCN=C(N)N)n3cc(C[C@@H](C)CC)nn3)CC2)n1"
  activation factor: 3.95
- compound: "Cn1c(COc2ccc3ccccc3c2)nnc1SCC(=O)O"
  activation factor: 0.952

Summary for this compound, `c1ccc(NC2=NCCCCS2)cc1` : activation factor is 1.06

Summary for this compound, COc1ccc(OC)c(S(=O)(=O)N2CCC(C(=O)NC(C)c3ccccc3)CC2)c1 (centres undefined) : activation factor is 1.03

Summary for this compound, COc1ccc(C2/C=C\CN(S(=O)(=O)c3ccc(C)cc3)CC(=O)N2Cc2cccc(F)c2)cc1 (centres undefined) : activation factor is 1.08

Summary for this compound, `C#CCOCCOCCOCCNc1nc(N2CCN(C(=O)CCCCCCCCCCNC(=O)[C@@H](CCSC)n3cc(CCO)nn3)CC2)nc(N2CCN(C(=O)CCCCCCCCCCNC(=O)[C@H](CCCN=C(N)N)n3cc(C[C@@H](C)CC)nn3)CC2)n1` : activation factor is 8.61

Summary for this compound, `Cc1onc(-c2ccccc2Cl)c1C(=O)OCC(=O)c1ccc2c(c1)OCCO2` : activation factor is 0.972

Summary for this compound, `C#CCOCCOCCOCCNc1nc(N2CCN(C(=O)CCCCCCCCCCNC(=O)[C@H](CO)n3cc(CCCSC)nn3)CC2)nc(N2CCN(C(=O)CCCCCCCCCCNC(=O)[C@H](CCCCN)n3cc(C[C@@H](C)CC)nn3)CC2)n1` : activation factor is 2.83

Summary for this compound, Cc1ccccc1C1C(C#N)=C2N=C(N)c3c(sc4c3CCCCC4)N2C2=C1C(=O)CCC2 (centres undefined) : activation factor is 0.831

Summary for this compound, `C#CCOCCOCCOCCNc1nc(N2CCN(C(=O)CCCCCCCCCCNC(=O)[C@H](CCCCN)n3cc(CCO)nn3)CC2)nc(N2CCN(C(=O)CCCCCCCCCCNC(=O)[C@H](CCCN=C(N)N)n3cc(C[C@@H](C)CC)nn3)CC2)n1` : activation factor is 3.04

Summary for this compound, `Cc1ccc(Nc2nc(CSc3nnnn3C)cs2)cc1` : activation factor is 0.806
